- tested_on: EP4 (Homo sapiens, UniProt P35408)
- Construct: BT549 breast cancer cells, express high endogenous EP4 levels and very low EP2 levels; endogenous in cells
- assay_comment: hEP4 cAMP assay (BT549 breast cancer cells, HTRF cAMP)
- measurement_context: PGE2 6 nM (EC80) as agonist, antagonistic activity

compound | scale_unit | IC50
Cc1cccc2cc(C)n(CCNc3cc(-c4ccc(C(=O)O)cc4)ncn3)c12 [Example 3] | µM | 5.66
N#Cc1cc2ccccc2n1CCNc1cc(-c2ccc(C(=O)O)cc2)ncn1 [Example 2] | µM | 1.35
Cc1cc2ccccc2n1CCNc1cc(-c2ccc(C(=O)O)cc2)ncn1 [Example 1] | µM | 5.72
O=C(O)c1ccc(-c2cc(NCCn3c(Cl)cc4ccccc43)ncn2)cc1 [Example 4] | µM | 2.61

---

- tested_on: PTGER2 (EP2) (Homo sapiens, UniProt P43116)
- Sequence (P43116 whole entry): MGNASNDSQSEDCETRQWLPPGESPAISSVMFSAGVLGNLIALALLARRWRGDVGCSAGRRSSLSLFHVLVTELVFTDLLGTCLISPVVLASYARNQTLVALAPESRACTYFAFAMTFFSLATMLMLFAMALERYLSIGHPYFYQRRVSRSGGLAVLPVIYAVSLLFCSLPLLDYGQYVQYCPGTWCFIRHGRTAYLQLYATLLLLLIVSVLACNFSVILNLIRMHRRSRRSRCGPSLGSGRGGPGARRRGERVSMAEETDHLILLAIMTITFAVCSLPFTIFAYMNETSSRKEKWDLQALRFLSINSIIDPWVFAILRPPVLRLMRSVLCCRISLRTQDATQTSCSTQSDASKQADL
- assay_comment: hEP2 b-arrestin assay (PathHunter HEK 293 PTGER2 b-arrestin cells)
- measurement_context: PGE2 5 μM (EC80) as agonist, antagonistic activity, read-out: hEP2 beta-arrestin IC50
Below, each entry is listed with its recorded IC50.

structure_smiles | scale_unit | IC50
Cc1cc2ccccc2n1CCNc1cc(-c2ccc(C(=O)O)cc2)ncn1 | nM | 13
O=C(O)c1ccc(-c2cc(NCCn3c(Cl)cc4ccccc43)ncn2)cc1 | nM | 3
Cc1cccc2cc(C)n(CCNc3cc(-c4ccc(C(=O)O)cc4)ncn3)c12 | nM | 8
N#Cc1cc2ccccc2n1CCNc1cc(-c2ccc(C(=O)O)cc2)ncn1 | nM | 11
O=C(O)c1ccc(-c2cc(NCCn3c(Br)cc4ccccc43)ncn2)cc1 | nM | 17

---

- tested_on: EP2 (Homo sapiens)
- Construct: SF295 glioblastoma cells express high endogenous EP2 and no EP4; endogenous in cells
- Sequence (P43116 whole entry): as above
- assay_comment: hEP2 cAMP assay (SF295 glioblastoma cells, HTRF cAMP)
- measurement_context: PGE2 75 nM (EC80) as agonist, antagonistic activity
pIC50: −log10 of the molar value.
Listed here are molecules together with their documented pIC50.

structure_smiles | tested_on | pIC50
O=C(O)c1ccc(-c2cc(NCCn3c(Cl)cc4ccccc43)ncn2)cc1 | EP2 (Homo sapiens) | 8.70
N#Cc1cc2ccccc2n1CCNc1cc(-c2ccc(C(=O)O)cc2)ncn1 | EP2 (Homo sapiens) | 8.00
Cc1cccc2cc(C)n(CCNc3cc(-c4ccc(C(=O)O)cc4)ncn3)c12 | EP2 (Homo sapiens) | 8.30
Cc1cc2ccccc2n1CCNc1cc(-c2ccc(C(=O)O)cc2)ncn1 | EP2 (Homo sapiens) | 7.82

---

- tested_on: PTRGER4 (EP4) (Homo sapiens, UniProt P35408)
- Sequence (P35408 whole entry): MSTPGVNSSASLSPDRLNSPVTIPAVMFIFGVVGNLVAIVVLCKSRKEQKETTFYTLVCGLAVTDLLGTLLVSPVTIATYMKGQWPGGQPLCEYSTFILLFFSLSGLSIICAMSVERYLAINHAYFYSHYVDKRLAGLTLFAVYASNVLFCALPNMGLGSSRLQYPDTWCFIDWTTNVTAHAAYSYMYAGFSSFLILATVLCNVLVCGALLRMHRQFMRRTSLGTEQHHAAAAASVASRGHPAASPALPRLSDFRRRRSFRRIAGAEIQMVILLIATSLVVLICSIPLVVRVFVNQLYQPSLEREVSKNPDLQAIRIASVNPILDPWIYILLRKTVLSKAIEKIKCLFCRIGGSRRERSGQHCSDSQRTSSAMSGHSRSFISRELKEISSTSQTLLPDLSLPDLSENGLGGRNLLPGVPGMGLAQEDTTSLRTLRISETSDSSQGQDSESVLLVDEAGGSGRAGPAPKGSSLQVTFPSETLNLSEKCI
- assay_comment: hEP4 b-arrestin assay (PathHunter HEK 293 PTGER4 b-arrestin cells)
- measurement_context: PGE2 20 nM (EC80) as agonist, antagonistic activity, read-out: hEP4 beta-arrestin IC50
Entries annotated with measured IC50

structure_smiles | IC50 (µM)
N#Cc1cc2ccccc2n1CCNc1cc(-c2ccc(C(=O)O)cc2)ncn1 | 2.06
Cc1cc2ccccc2n1CCNc1cc(-c2ccc(C(=O)O)cc2)ncn1 | 5.97
O=C(O)c1ccc(-c2cc(NCCn3c(Br)cc4ccccc43)ncn2)cc1 | 4.97
Cc1cccc2cc(C)n(CCNc3cc(-c4ccc(C(=O)O)cc4)ncn3)c12 | 11
O=C(O)c1ccc(-c2cc(NCCn3c(Cl)cc4ccccc43)ncn2)cc1 | 2.96
